From: the supplement of paper PMC3937590

Tested on: HCC1428
assay name: -log10 GI50 (growth inhibition 50%) (-log10(M)); higher = more potent growth inhibition
experimental endpoint: -log10 GI50

Q. State the recorded -log10 GI50 for this entry: CO[C@H]1C[C@@H]2CC[C@@H](C)[C@@](O)(O2)C(=O)C(=O)N2CCCC[C@H]2C(=O)O[C@H]([C@H](C)C[C@@H]2CC[C@@H](OCCO)[C@H](OC)C2)CC(=O)[C@H](C)/C=C(\C)[C@@H](O)[C@@H](OC)C(=O)[C@H](C)C[C@H](C)/C=C/C=C/C=C/1C [Everolimus]
A. 5.06

Q. State the recorded -log10 GI50 for this entry: O=c1[nH]c(=O)n([C@H]2C[C@H](O)[C@@H](CO)O2)cc1F [Floxuridine]
A. 4.04

Q. State the recorded -log10 GI50 for this entry: CCc1c2c(nc3ccc(OC(=O)N4CCC(N5CCCCC5)CC4)cc13)-c1cc3c(c(=O)n1C2)COC(=O)[C@]3(O)CC [CPT-11]
A. 4.64

Q. State the recorded -log10 GI50 for this entry: CC[C@@]1(O)C(=O)OCc2c1cc1n(c2=O)Cc2cc3c(CN(C)C)c(O)ccc3nc2-1 [Topotecan]
A. 6.35

I. Nc1ccn([C@@H]2O[C@H](CO)[C@@H](O)C2(F)F)c(=O)n1 [Gemcitabine]
II. COc1cccc2c1C(=O)c1c(O)c3c(c(O)c1C2=O)C[C@@](O)(C(=O)CO)C[C@@H]3O[C@H]1C[C@H](N)[C@@H](O)[C@H](C)O1 [Epirubicin]
Q. Would you mind telling me which has the lower recorded -log10 GI50 between I and II ? Mark your answer with the label of the selected entry.
A. I
